EXPERIMENTAL_PROTOCOL: Viability qHTS for spleen associated tyrosine kinase inhibitor (SYKi) naive MV4-11 cells (AID 1963823); note: nearly all actives have a fitted effect of over 40% in size
PARTICULARS: MV4-11 AML viability, CellTiter-Glo luminescence, 72 h; series mostly up to 45 µM
Records with an inconclusive call do not appear. Activity calls are given as the source filed them. Calls come from the whole dose curve; as a rule, active = well fitted cell-killing curve with a large enough effect; inconclusive = small, poorly fitted or top-dose-only effect, or effect the other way; inactive = no such curve, though single readings can be large or run the other way.
Outcome codes: YES (active), NO (inactive)

COMPOUND: Cc1cc(=O)oc2cc(O)ccc12
CLASS_NAME: NO
//
COMPOUND: CN(C)CCCNC(=O)c1ccc(-c2cc(O)c3ncccc3c2)cc1
CLASS_NAME: YES
//
COMPOUND: CCc1ccc2nc(Nc3cc(Cc4ccccc4)nc(NC4CCC(O)CC4)n3)sc2c1 (centres undefined)
CLASS_NAME: YES
//
COMPOUND: CO[C@H]1[C@@H](O)[C@H](O[C@H]2CC[C@@]3(C)C(CCC4C3CC[C@]35COC6(COC(=O)C6)C3CCC45O)C2)O[C@@H](C)[C@@H]1OC1OC(CO)C(OC2OC(CO)C(O)C(O)C2O)C(O)C1O (some centres undefined)
CLASS_NAME: YES
//
COMPOUND: O=C(NOCC1CC1)c1ccc(F)c(F)c1Nc1ccc(I)cc1Cl
CLASS_NAME: YES
//
COMPOUND: CC(NC(=O)CC(=O)O)C(=O)Nc1ccccc1C(N)=O (centres undefined)
CLASS_NAME: NO
//
COMPOUND: C[C@@H]1N[C@H]2N(C1=O)c1ccccc1[C@@]2(O)C[C@@H]1C(=O)N[C@@H](C)c2nc3ccccc3c(=O)n21
CLASS_NAME: NO
//
COMPOUND: CC(=O)O[C@]1(C(C)=O)CC[C@H]2[C@@H]3CCC4=CC(=O)CCC4=C3[C@@H](c3ccc(N(C)C)cc3)C[C@@]21C
CLASS_NAME: YES
//
COMPOUND: Cc1cc(=O)[nH]c(=S)[nH]1
CLASS_NAME: NO
